- TARGET DESC: Free fatty acid receptor 1 (Homo sapiens)
- EXPERIMENTAL PROTOCOL: Agonist activity at GPR40 (unknown origin) expressed in mouse A9 cells assessed as inositol phosphate accumulation using [myo-3H]inositol after 1 hr by scintillation counting in presence of 0.3% human serum albumin relative to AM-1638
- Format: functional, cell-based
PROPERTY NAME: Emax (%)

[
  {
    "SMILES DATA": "COc1cc(-c2ccc(COc3cc([C@H](C)CC(=O)O)ccn3)cc2[C@@H]2CCCC2(C)C)c(F)cn1",
    "NUMERIC READOUT": 100
  },
  {
    "SMILES DATA": "CC[C@H](CC(=O)O)c1ccnc(OCc2ccc(-c3cc(OC)ncc3F)c([C@@H]3CCCC3(C)C)c2)c1",
    "NUMERIC READOUT": 102
  },
  {
    "SMILES DATA": "COc1cc(-c2ccc(COc3cc4c(cn3)CC[C@]43C[C@H]3C(=O)O)cc2[C@H](OC)C(C)(C)C)c(F)cn1",
    "NUMERIC READOUT": 122
  },
  {
    "SMILES DATA": "COc1cc(-c2ccc(COc3ccc4c(c3)[C@@](C)(CC(=O)O)CC4)cc2[C@H](OC)C(C)(C)C)c(F)cn1",
    "NUMERIC READOUT": 101
  }
]

----------
- TARGET DESC: Free fatty acid receptor 1 (Homo sapiens, UniProt O14842)
- Sequence (O14842 whole entry): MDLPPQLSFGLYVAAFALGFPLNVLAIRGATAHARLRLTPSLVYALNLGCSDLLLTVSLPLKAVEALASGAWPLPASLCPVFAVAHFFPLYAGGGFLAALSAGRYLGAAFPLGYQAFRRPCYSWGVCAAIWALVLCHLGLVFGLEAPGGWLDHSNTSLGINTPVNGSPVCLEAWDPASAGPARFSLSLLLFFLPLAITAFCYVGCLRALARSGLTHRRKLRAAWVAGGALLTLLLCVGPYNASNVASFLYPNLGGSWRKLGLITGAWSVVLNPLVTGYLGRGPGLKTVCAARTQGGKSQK
- EXPERIMENTAL PROTOCOL: Agonist activity at GPR40 (unknown origin) expressed in CHO cells assessed as luminescence for 20 seconds interval by aequorin assay in presence of 0.01% human serum albumin
- Format: cell-based
pEC50: −log10 of the molar value.
PROPERTY NAME: pEC50

(1) CCC[C@H](CC(=O)O)c1cccc(OCc2ccc(-c3cccc(OC)c3)c(C(C)(C)C)c2)c1
(2) COc1ccc(F)c(-c2ccc(COc3cccc([C@@H](CC(=O)O)C4CC4)c3)cc2[C@@H]2CCCC2(C)C)c1
(3) COc1cc(-c2ccc(COc3cc([C@@H](CC(=O)O)C4CC4)ccn3)cc2[C@H](OC)C(C)(C)C)c(F)cn1
QUERY: Order all 3 entries above by recorded pEC50, highest first, lowest last. Rank them, then answer with their labels in that order.
RESULT: 2, 3, 1

----------
- TARGET DESC: Free fatty acid receptor 1 (Homo sapiens)
- EXPERIMENTAL PROTOCOL: Agonist activity at GPR40 (unknown origin) expressed in CHO cells assessed as luminescence for 20 seconds interval by aequorin assay in presence of 0.01% human serum albumin relative to AM-1638
- Type: cell-based
PROPERTY NAME: Emax (%)

Previously resolved entries follow.
[
  {
    "SMILES DATA": "COc1ccc(F)c(-c2ccc(COc3cccc([C@@H](CC(=O)O)C4CC4)c3)cc2[C@@H]2OCCCC2(C)C)c1",
    "PROPERTY NAME": "Emax",
    "NUMERIC READOUT": 96
  },
  {
    "SMILES DATA": "CCC[C@H](CC(=O)O)c1cccc(OCc2ccc(-c3cncc(OC)c3)c(C(C)(C)C)c2)c1",
    "PROPERTY NAME": "Emax",
    "NUMERIC READOUT": 72
  },
  {
    "SMILES DATA": "COc1cc(-c2ccc(COc3cc4c(cn3)CC[C@]43C[C@H]3C(=O)O)cc2[C@H](OC)C(C)(C)C)c(F)cn1",
    "PROPERTY NAME": "Emax",
    "NUMERIC READOUT": 85
  },
  {
    "SMILES DATA": "COc1cc(-c2ccc(COc3cc([C@@H](CC(=O)O)C4CC4)ccn3)cc2[C@@H]2CCCC2(C)C)c(F)cn1",
    "PROPERTY NAME": "Emax",
    "NUMERIC READOUT": 110
  },
  {
    "SMILES DATA": "COc1ccc(F)c(-c2ccc(COc3cccc([C@@H](CC(=O)O)C4CC4)c3)cc2[C@H](OC)C(C)(C)C)c1",
    "PROPERTY NAME": "Emax",
    "NUMERIC READOUT": 105
  },
  {
    "SMILES DATA": "COc1cc(-c2ccc(COc3cccc([C@@H](CC(=O)O)C4CC4)c3)cc2[C@@H]2CCCC2(C)C)c(F)cn1",
    "PROPERTY NAME": "Emax",
    "NUMERIC READOUT": 95
  }
]

(1) COc1cc(-c2ccc(COc3cccc([C@@H](CC(=O)O)C4CC4)c3F)cc2[C@@H]2CCCC2(C)C)c(F)cn1
(2) CCC[C@H](CC(=O)O)c1cccc(OCc2ccc(-c3cccc(OC)n3)c(C(C)(C)C)c2)c1
QUERY: Among 1 and 2 , which shows a numerically higher Emax result? Bench note: the answer is the label of the chosen record.
RESULT: 1

----------
- TARGET DESC: Free fatty acid receptor 1 (Homo sapiens)
- EXPERIMENTAL PROTOCOL: Agonist activity at GPR40 (unknown origin) expressed in mouse A9 cells assessed as inositol phosphate accumulation using [myo-3H]inositol after 1 hr by scintillation counting in presence of 0.3% human serum albumin
- Assay type: functional, cell-based
PROPERTY NAME: EC50 (nM)

Worked cases, EC50 given:
[
  {
    "SMILES DATA": "CC[C@H](CC(=O)O)c1ccnc(OCc2ccc(-c3cc(OC)ncc3F)c([C@@H]3CCCC3(C)C)c2)c1",
    "EC50 [nM]": 6
  },
  {
    "SMILES DATA": "COc1cc(-c2ccc(COc3cc4c(cn3)CC[C@]43C[C@H]3C(=O)O)cc2[C@@H]2CCCC2(C)C)c(F)cn1",
    "EC50 [nM]": 22
  }
]

(1) COc1cc(-c2ccc(COc3cc([C@H](C)CC(=O)O)ccn3)cc2[C@@H]2CCCC2(C)C)c(F)cn1
(2) COc1cc(-c2ccc(COc3ccc4c(c3)[C@@](C)(CC(=O)O)CC4)cc2[C@H](OC)C(C)(C)C)c(F)cn1
QUERY: Response body: label of entry with the larger EC50; valid values 1 , 2 . Bench note: the answer is the label of the chosen record.
RESULT: 1

----------
- TARGET DESC: Free fatty acid receptor 1 (Homo sapiens, UniProt O14842)
- EXPERIMENTAL PROTOCOL: Agonist activity at GPR40 (unknown origin) expressed in mouse A9 cells assessed as inositol phosphate accumulation using [myo-3H]inositol after 1 hr by scintillation counting in presence of 0.3% human serum albumin relative to AM-1638
- Assay type: functional, cell-based
PROPERTY NAME: Emax (%)

[
  {
    "SMILES DATA": "COc1cc(-c2ccc(COc3cc([C@@H](CC(=O)O)C4CC4)ccn3)cc2[C@@H]2CCCC2(C)C)c(F)cn1",
    "Emax [%]": 100
  },
  {
    "SMILES DATA": "COc1cc(-c2ccc(COc3cc([C@@H](CC(=O)O)C4CC4)ccn3)cc2[C@H](OC)C(C)(C)C)c(F)cn1",
    "Emax [%]": 100
  },
  {
    "SMILES DATA": "COc1cc(-c2ccc(COc3ccc4c(c3)[C@@](C)(CC(=O)O)CC4)cc2[C@@H]2CCCC2(C)C)c(F)cn1",
    "Emax [%]": 100
  },
  {
    "SMILES DATA": "COc1cc(-c2ccc(COc3cc4c(cn3)CC[C@]43C[C@H]3C(=O)O)cc2[C@@H]2CCCC2(C)C)c(F)cn1",
    "Emax [%]": 97
  }
]

----------
- TARGET DESC: Free fatty acid receptor 1 (Homo sapiens)
- EXPERIMENTAL PROTOCOL: Agonist activity at GPR40 (unknown origin) expressed in CHO cells assessed as luminescence for 20 seconds interval by aequorin assay in presence of 0.01% human serum albumin relative to AM-1638
- Assay type: cell-based
PROPERTY NAME: Emax (%)

[
  {
    "SMILES DATA": "COc1ccc(F)c(-c2ccc(COc3cccc([C@@H](CC(=O)O)C4CC4)c3)cc2[C@@H](OC)C(C)(C)C)c1",
    "Emax (%)": 98
  },
  {
    "SMILES DATA": "COc1cc(-c2ccc(COc3ccc4c(c3)[C@@](C)(CC(=O)O)CC4)cc2[C@@H]2CCCC2(C)C)c(F)cn1",
    "Emax (%)": 100
  },
  {
    "SMILES DATA": "COc1cc(-c2ccc(COc3cc([C@@H](CC(=O)O)C4CC4)ccn3)cc2[C@H](OC)C(C)(C)C)c(F)cn1",
    "Emax (%)": 94
  },
  {
    "SMILES DATA": "COc1cc(-c2ccc(COc3ccc4c(c3)[C@@](C)(CC(=O)O)CC4)cc2[C@H](OC)C(C)(C)C)c(F)cn1",
    "Emax (%)": 106
  },
  {
    "SMILES DATA": "CCC[C@H](CC(=O)O)c1cccc(OCc2ccc(-c3cccc(OC)c3)c(C(C)(C)C)c2)c1",
    "Emax (%)": 94
  }
]
